The reported measurements were obtained from ChEMBL document CHEMBL2029257.

# assay-details: Metabolic stability in Sprague-Dawley rat serum assessed as compound remaining at 2 MBq at 2 hrs by RP-HPLC analysis
# Format: ADME, cell-free
# condition-summary: Sprague-Dawley, read-out: Stability
test-readout: remaining at 2 h, 2 MBq (%)
Report the value in % with no unit label.

Query block: // returns reported remaining at 2 h, 2 MBq for input O=C(O)COCC(=O)NCCOCCOCCOCCOCCOCCOCCOCCOCCn1nnc2c1-c1ccccc1CN(C(=O)CCCCCNC(=O)c1ccc([18F])cc1)c1ccccc1-2
Result block: 96.8

* * *

# assay-details: Metabolic stability in Sprague-Dawley rat serum assessed as compound remaining at 2 MBq at 1 hr by RP-HPLC analysis
# Format: ADME, cell-free
# condition-summary: read-out: Stability
Hi there, I'd appreciate the recorded remaining at 1 h, 2 MBq for every entry that follows.

Query block: Entry under review: O=C(O)COCC(=O)NCCOCCOCCOCCOCCOCCOCCOCCOCCn1nnc2c1-c1ccccc1CN(C(=O)CCCCCNC(=O)c1ccc([18F])cc1)c1ccccc1-2 . Reported remaining at 1 h, 2 MBq?
Result block: > 98%

Query block: What value of remaining at 1 h, 2 MBq has been reported for the following compound? O=C(NCCCCCC(=O)N1Cc2ccccc2C#Cc2ccccc21)c1ccc([18F])cc1
Result block: > 98%
